Experiment: Cytotoxicity against human HepG2 cells assessed as cell viability at 20 uM after 48 hrs by MTT assay relative to control
Format: cell-based
Conditions: read-out: Activity
metric.name: viability at 48 h, 20 µM (%)

> print(dat)
                                   compound  meas.value
1  CC(=O)OC[C@H]1OC(OC(C)=O)[C@H](NC(=O)C(F)(F)F)[C@@H](OC(C)=O)[C@@H]1OC(C)=O (stereo partly specified)        94.2

###

Test: Cytotoxicity against human HepG2 cells assessed as cell viability at 5 uM after 48 hrs by MTT assay relative to control
Format: cell-based
Conditions: read-out: Activity
metric.name: viability at 48 h, 5 µM (%)

> print(dat)
                                   compound              metric.name  meas.value
1  CC(=O)OC[C@H]1OC(OC(C)=O)[C@H](NC(=O)C(F)(F)F)[C@@H](OC(C)=O)[C@@H]1OC(C)=O (stereo partly specified)  viability at 48 h, 5 µM        96.9

###

Assay: Cytotoxicity against human HeLa cells assessed as cell viability at 10 uM after 48 hrs by MTT assay relative to control
Assay type: cell-based
Conditions: read-out: Activity
metric.name: viability at 48 h, 10 µM (%)

> print(dat)
                                   compound  meas.value
1  CC(=O)OC[C@H]1OC(OC(C)=O)[C@H](NC(=O)C(F)(F)F)[C@@H](OC(C)=O)[C@@H]1OC(C)=O (stereo partly specified)        96.2

###

Test: Cytotoxicity against human HepG2 cells assessed as cell viability at 100 uM after 48 hrs by MTT assay relative to control
Format: cell-based
Conditions: read-out: Activity
metric.name: viability at 48 h, 100 µM (%)

> print(dat)
                                   molecule  meas.value
1  CC(=O)OC[C@H]1OC(OC(C)=O)[C@H](NC(=O)C(F)(F)F)[C@@H](OC(C)=O)[C@@H]1OC(C)=O (stereo partly specified)        84.9

###

Assay: Cytotoxicity against mouse NIH/3T3 cells assessed as cell viability at 50 uM after 48 hrs by MTT assay relative to control
Type: cell-based, NIH3T3
Details: read-out: Activity
metric.name: viability at 48 h, 50 µM

> print(dat)
                                   compound  meas.value
1  CC(=O)OC[C@H]1OC(OC(C)=O)[C@H](NC(=O)C(F)(F)F)[C@@H](OC(C)=O)[C@@H]1OC(C)=O (stereo partly specified)       61.3%

###

Experiment: Inhibition of lysosomal hexosaminidase (unknown origin)
Parameters: species or system Homo sapiens
metric.name: Ki

> print(dat)
                               smiles.input  metric.name   meas.value
1  CC(=O)N[C@H]1/C(=N/OC(=O)Nc2ccccc2)O[C@H](CO)[C@@H](O)[C@@H]1O           Ki  30 to 40 nM

###

Experiment: Cytotoxicity against human HepG2 cells assessed as cell viability at 10 uM after 48 hrs by MTT assay relative to control
Format: cell-based
Conditions: read-out: Activity
metric.name: viability at 48 h, 10 µM

> print(dat)
                                   compound               metric.name  meas.value
1  CC(=O)OC[C@H]1OC(OC(C)=O)[C@H](NC(=O)C(F)(F)F)[C@@H](OC(C)=O)[C@@H]1OC(C)=O (stereo partly specified)  viability at 48 h, 10 µM       94.7%
